Values were extracted from patent US7329653B2.

biological target: vasopressin V2 receptors (Rattus norvegicus); construct: Male or female normotensive Sprague-Dawley rats; tissue Charles River Laboratories, Inc; host or cells: whole animal (Sprague-Dawley rat; kidney collecting ducts per the background); assay: Vasopressin V2 agonist effects in normal conscious water-loaded rats; assay type: in vivo; details: vs control; oral dose of 10 mg/Kg; urine collected for four hours; Sprague-Dawley (CD) rats
METRIC: Urine Volume (% decrease)

| COMPOUND | Urine Volume (% decrease) |
| --- | --- |
| O=C(c1ccc(C2CCCCC2)cc1)N1Cc2cccnc2Nc2ccccc21 [Example 2] | 48 |
| O=C(c1ccc(C2CCCCC2)cc1)N1Cc2cccn2Cc2ccccc21 [Example 1] | 61 |
| CN1c2ccccc2N(C(=O)c2ccc(C3CCCCC3)cc2)Cc2cccnc21 [Example 3] | 51 |
| CCN1c2ccccc2N(C(=O)c2ccc(C3CCCCC3)cc2)Cc2cccnc21 [Example 4] | 64 |

---

target: vasopressin V2 receptors (Rattus norvegicus, UniProt Q00788); construct: Male or female normotensive Sprague-Dawley rats; tissue Charles River Laboratories, Inc; host or cells: whole animal (Sprague-Dawley rat; kidney collecting ducts per the background); experiment: Vasopressin V2 agonist effects in normal conscious water-loaded rats; format: in vivo; conditions: vs control; oral dose of 10 mg/Kg; urine collected for four hours; Sprague-Dawley (CD) rats
Sequence (Q00788 whole entry): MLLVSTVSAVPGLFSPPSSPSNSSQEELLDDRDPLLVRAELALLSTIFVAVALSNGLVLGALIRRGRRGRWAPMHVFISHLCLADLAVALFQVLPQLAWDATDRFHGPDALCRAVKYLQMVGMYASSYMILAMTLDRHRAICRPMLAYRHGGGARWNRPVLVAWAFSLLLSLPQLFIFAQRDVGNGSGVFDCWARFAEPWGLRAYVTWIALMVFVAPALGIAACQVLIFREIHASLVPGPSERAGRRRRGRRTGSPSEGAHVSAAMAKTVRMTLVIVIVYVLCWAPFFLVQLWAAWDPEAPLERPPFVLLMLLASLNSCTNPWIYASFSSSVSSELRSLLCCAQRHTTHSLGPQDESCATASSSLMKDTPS
METRIC: Urinary Osmolality (% increase)

| COMPOUND | MEASUREMENT TARGET | TEST VALUE |
| --- | --- | --- |
| CN1c2ccccc2N(C(=O)c2ccc(C3CCCCC3)cc2)Cc2cccnc21 [Example 3] | vasopressin V2 receptors (Rattus norvegicus, UniProt Q00788) | 129 |

P = CCN1c2ccccc2N(C(=O)c2ccc(C3CCCCC3)cc2)Cc2cccnc21 [Example 4]
Q = O=C(c1ccc(C2CCCCC2)cc1)N1Cc2cccnc2Nc2ccccc21 [Example 2]
R = O=C(c1ccc(C2CCCCC2)cc1)N1Cc2cccn2Cc2ccccc21 [Example 1]
Rank ascending by Urinary Osmolality (% increase). I would appreciate it if you listed the labels in the requested order. Q, P, R
(Q: 51 % increase, P: 132 % increase, R: 232 % increase)

---

METRIC: melting point

| STRUCTURE SMILES | melting point |
| --- | --- |
| O=C(c1ccc(C2CCCCC2)cc1)N1Cc2ccccc2Nc2ccccc21 | 175 to 176 °C |
| O=C(c1ccc(C2CCCCC2)cc1)N1Cc2cccnc2Nc2ccccc21 | 230 to 233 °C |
| CN1c2ccccc2CN(C(=O)c2ccc(C3CCCCC3)cc2)c2ccccc21 | 111 to 112 °C |
| O=C(c1ccc(C2CCCCC2)cc1)N1CCCCc2sccc21 | 145 to 148 °C |
| O=C(c1ccc(C2CCCCC2)cc1)N1Cc2cccn2Cc2ccccc21 | 127 to 129 °C |

Moving on to the next molecule.
What melting point value was documented for this molecule, O=C(c1ccc(C2CCCCC2)cc1)N1Cc2cccn2Cc2ncccc21 ? 150 to 152 °C
